Provide the reported Population Apoptotic (%) of each item.
- Tested on: Fibroblast
- Assay Remarks: Multiplex assay against human fibroblast
- Assay type: toxicity, cell-based
- Protocol Conditions: 48 h, 1 µM, compound concentration 1 uM, replicate 2
Numbers only, in %.

Ask: State the recorded Population Apoptotic (%) for this entry: `CC(C)c1cc(Nc2nc(N3CCC[C@H](N)C3)ncc2C(N)=O)cc(C(C)C)n1`
Reply: 42

Ask: Please answer likewise for `Oc1cccc(-c2nc(N3CCOCC3)c3oc4ncccc4c3n2)c1`
Reply: 60

Ask: Please answer likewise for `Cc1c(P(=S)(c2ccccc2)c2ccccc2)n2ccccc2[n+]1C/C=C/c1ccccc1.[Br-]`
Reply: 100

Ask: Please answer likewise for `C[C@@H](Oc1cc(-n2cnc3ccc(CN4CCN(C)CC4)cc32)sc1C(N)=O)c1ccccc1C(F)(F)F`
Reply: 25

Ask: Please answer likewise for `CN(c1cc(C(F)(F)F)nc(OCCC(=O)O)n1)c1cccc2c1CCC2`
Reply: 33

Ask: Please answer likewise for CN1C(=O)[C@@H](NC(=O)c2cc3ccccc3[nH]2)N=C(c2ccccc2)c2ccccc21 [DEVAZEPIDE]
Reply: 0

Hello, I would appreciate it if you could give Population Apoptotic (%) for each entry below.
1. Cl.NC[C@@H]1O[C@H](C23CC4CC(CC(C4)C2)C3)Cc2c1ccc(O)c2O
2. N#Cc1cccc(C(=O)Nc2cc(-c3ccccc3)nn2-c2ccccc2)c1

Reply:
1: 100; 2: 0

Ask: State the recorded Population Apoptotic (%) for this entry: `CC(C)C[C@H](NC(=O)[C@H](Cc1ccccc1)NC(=O)CNC(=O)CNC(=O)[C@@H](N)Cc1ccc(O)cc1)C(=O)O`
Reply: 100

----------
- Test system: HEK-293T
- Assay Remarks: Multiplex assay against HEK293T
- Type: toxicity, cell-based
- Protocol Conditions: human, 12 h, 1 µM, compound concentration 1 uM, replicate 1
Provide the reported Population Apoptotic (%) of each item.
One number for each entry, in %.

Some solved cases for reference:
Ask: Request body: readout Population Apoptotic (%), system HEK-293T, query `CC(C)c1cc(Nc2nc(N3CCC[C@H](N)C3)ncc2C(N)=O)cc(C(C)C)n1` . Return the value.
Reply: 61

Ask: Please answer likewise for `Cc1ccc(NC(=O)Nc2cc(C(F)(F)F)ccc2F)cc1Nc1ccc2c(c1)NC(=O)/C2=C\c1ccc[nH]1`
Reply: 13

Ask: Please answer likewise for C[C@@H](Oc1cc(-n2cnc3ccc(CN4CCN(C)CC4)cc32)sc1C(N)=O)c1ccccc1C(F)(F)F [GSK-461364]
Reply: 62

Ask: Please answer likewise for `CCCCN(CC)c1nc(C)nc2c1c(C)cn2-c1c(C)cc(C)cc1C.Cl`
Reply: 49

Ask: Please answer likewise for `Cc1c(Nc2ccc(S(=O)(=O)N3CCN(C)CC3)cc2F)nc2ccc(-c3cnn(C4CC4)c3)cn2c1=O`
Reply: 19

Hello, I would appreciate it if you could give Population Apoptotic (%) for each entry below.
1. CCCCCNC(=N)N/N=C/c1c[nH]c2ccc(OC)cc12.O=C(O)/C=C\C(=O)O [TEGASEROD MALEATE]
2. N#Cc1cccc(C(=O)Nc2cc(-c3ccccc3)nn2-c2ccccc2)c1

Reply:
1. 45
2. 48

Hello, I would appreciate it if you could give Population Apoptotic (%) for each entry below.
1. CCCc1cc(C)[nH]c(=O)c1CNC(=O)c1cc(-c2ccc(N3CCN(C(C)C)CC3)nc2)cc2c1cnn2C(C)C
2. CC(/C=C1\SC(=S)N(CCCC(=O)Nc2ccc(C(=O)O)c(O)c2)C1=O)=C\c1ccccc1
3. Cl.Cn1c2c(c3ccc(Cl)c(Cl)c31)C(C#N)C1(CCNCC1)NC2=O (configuration not stated)
4. Cl.NC[C@@H]1O[C@H](C23CC4CC(CC(C4)C2)C3)Cc2c1ccc(O)c2O

Reply:
63
38
17
34
